# protocol description: clinical
# measurement context: human, in vivo, 100 mg
observable: Vd at 6 h (L)
Report as a plain number; the unit L is understood.

Lookup: Retrieve Vd at 6 h measured for O=C(O)Cc1ccccc1Nc1c(Cl)cccc1Cl and print it.
Found: 8.11

---

# protocol description: clinical
# measurement context: human, in vivo, 100 mg
observable: Vd at 2 h (L)
Give just the numeric value; L need not be written.

Lookup: Give Vd at 2 h for O=C(O)Cc1ccccc1Nc1c(Cl)cccc1Cl
Found: 21.2

---

# protocol description: clinical
# measurement context: human, in vivo, 100 mg
observable: Vd at 1 h (L)
Provide the reading as a plain figure in L.

Lookup: Tell me its Vd at 1 h given O=C(O)Cc1ccccc1Nc1c(Cl)cccc1Cl [diclofenac] as the entry.
Found: 522

---

# protocol description: clinical
# measurement context: human, in vivo, 100 mg
# Description: The method used in publication relies on fractional order derivatives with a multi-compartmental model using Laplace transform, which is not a common operation a lab technician usually able to perform. […] The resulting simplified equation for time changes of the concentration in the blood plasma (=the target compartment in the terminology of the recent invention), designated as c2(t) in [6], was expressed with six unknown parameters (d, k02, k21, α1, α2 and the lag time) as: […]
observable: Vd at 2.5 h

Lookup: // Input: O=C(O)Cc1ccccc1Nc1c(Cl)cccc1Cl . Output its Vd at 2.5 h only.
Found: 13.7 L

---

# protocol description: clinical
# measurement context: human, in vivo, 100 mg
observable: Vd at 24 h (L)
Answer format: numeric, L implied, no suffix.

Lookup: Report Vd at 24 h for O=C(O)Cc1ccccc1Nc1c(Cl)cccc1Cl
Found: 7.69

---

# protocol description: clinical
# measurement context: human, in vivo, 100 mg
observable: Vd at 1.5 h (L)
Hi! Could you send only the number? It should be in L, unit omitted.

Lookup: // Input: O=C(O)Cc1ccccc1Nc1c(Cl)cccc1Cl . Output its Vd at 1.5 h only.
Found: 56.1

These data points were gathered from patent US20240047019A1.
